Origin of measurements: the supplement of paper PMC6992640

Let's look at some molecules and their measured cell viability.
system: HCI11 (cells of an ER-positive luminal breast cancer xenograft); test: cell viability (% of vehicle); higher = less cytotoxic; settings: 10 µM; 72 h;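 also: PDX cells carrying CMV promoter-driven luciferase, viability read as total photon flux per second by IVIS imaging following D-luciferin, vehicle control 0.1% DMSO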
Write the value as a bare number.

>  <molecule>
C#CCNC1CCc2ccccc21.CS(=O)(=O)O (centres undefined) [Rasagiline Mesylate]

>  <cell viability>
127

$$$$
>  <molecule>
Nc1ncn(C2OC(CO)C(O)C2O)c(=O)n1 (centres undefined)

>  <cell viability>
170

$$$$
>  <molecule>
Oc1ccc(OC2CCCCO2)cc1 (centres undefined)

>  <cell viability>
112

$$$$
>  <molecule>
CCCCNc1ccc(C(=O)OCCN(C)C)cc1.Cl [Tetracaine HCl]

>  <cell viability>
121

$$$$
>  <molecule>
CC(=O)OCC(=O)NCCCOc1cccc(CN2CCCCC2)c1.Cl [Roxatidine Acetate HCl]

>  <cell viability>
120

$$$$
>  <molecule>
CCCCc1oc2ccc(NS(C)(=O)=O)cc2c1C(=O)c1ccc(OCCCN(CCCC)CCCC)cc1

>  <cell viability>
90.5

$$$$

In: Please respond with reported cell viability (system HCI11) for CN1CCC(=C2c3ccccc3CC(=O)c3sccc32)CC1.O=C(O)C=CC(=O)O [Ketotifen Fumarate] .
Out: 102

In: Fill in cell viability for NC(CO)(CO)CO.O=C(c1ccccc1)c1ccc2n1CCC2C(=O)O (centres undefined) [Ketorolac tromethamine salt] tested with HCI11.
Out: 102

In: System HCI11. Read-out cell viability. Item O=C(NCCO[N+](=O)[O-])c1cccnc1 . Report value.
Out: 89.3

###

tested on: HCI11; assay: cell viability (% of vehicle); higher = less cytotoxic; conditions: 10 µM; 72 h
Simple rule here: cell viability less than 90 is condition met, otherwise condition not met.

>  <molecule>
Cc1nc2n(c(=O)c1CCN1CCC(c3noc4cc(F)ccc34)CC1)CCCC2

>  <tested-target>
HCI11

>  <label>
condition not met

$$$$
>  <molecule>
COC(=O)C1=C(C)NC(C)=C(C(=O)OC2CCCN(Cc3ccccc3)C2)C1c1cccc([N+](=O)[O-])c1.Cl (centres undefined) [Benidipine HCl]

>  <tested-target>
HCI11

>  <label>
condition met

$$$$
>  <molecule>
COC1C(O)CC(=O)OC(C)CC=CC=CC(OC2CCC(N(C)C)C(C)O2)C(C)CC(CC=O)C1OC1OC(C)C(OC2CC(C)(O)C(O)C(C)O2)C(N(C)C)C1O (centres undefined)

>  <tested-target>
HCI11

>  <label>
condition not met

$$$$
>  <molecule>
COc1ccccc1Oc1c(NS(=O)(=O)c2ccc(C(C)(C)C)cc2)nc(-c2ncccn2)nc1OCCO

>  <tested-target>
HCI11

>  <label>
condition met

$$$$

In: Is cell viability strictly under 90 for the entry CCCC1CC(C(=O)NC(C(C)Cl)C2OC(SC)C(OP(=O)(O)O)C(O)C2O)N(C)C1 (centres undefined) [Clindamycin Phosphate] ?
Out: condition not met

In: Dear reviewer, please state whether Nc1nc(N)c2nc(-c3ccccc3)c(N)nc2n1 has cell viability strictly beneath 90.
Out: condition not met

In: Strictly below 90: is that where cell viability of CC1=C(C(=O)O)N2C(=O)C(NC(=O)C(N)c3ccccc3)C2SC1 (centres undefined) sits?
Out: condition not met

###

test system: WHIM2 (cells of a triple-negative basal-like breast cancer xenograft); assay: cell viability (% of vehicle); higher = less cytotoxic; settings: 10 µM; 72 h
property-label: cell viability

Past entries and their recorded results:
>  <compound>
CC(C)(C)NCC(O)c1ccc(O)c(CO)c1.O=S(=O)(O)O (stereo unspecified) [Salbutamol Sulfate]

>  <cell viability>
92.9

$$$$
>  <compound>
COC(=O)NC(C(=O)N1CCCC1c1ncc(-c2ccc(-c3ccc(-c4cnc(C5CCCN5C(=O)C(NC(=O)OC)C(C)C)[nH]4)cc3)cc2)[nH]1)C(C)C (stereo unspecified)

>  <cell viability>
58.8

$$$$
>  <compound>
CCN1CCN(C(=O)NC(C(=O)NC2C(=O)N3C(C(=O)O)=C(CSc4nnnn4C)CSC23)c2ccc(O)cc2)C(=O)C1=O (stereo unspecified)

>  <cell viability>
108

$$$$
>  <compound>
N.N.O=C([O-])C1(C(=O)[O-])CCC1.[Pt+2]

>  <cell viability>
84.8

$$$$
>  <compound>
CC12C=CC(=O)C=C1CCC1C2C(O)CC2(C)C1CCC2(O)C(=O)CO (stereo unspecified)

>  <cell viability>
114

$$$$
>  <compound>
Cl.c1ccc(CN(CC2=NCCN2)c2ccccc2)cc1 [Antazoline HCl]

>  <cell viability>
92.5

$$$$

In: Look up cell viability of CC(=O)Oc1ccc(C(c2ccc(OC(C)=O)cc2)c2ccccn2)cc1 and report it.
Out: 111

In: Report cell viability for CC(C)C(=O)OCC(=O)[C@@]12O[C@H](C3CCCCC3)O[C@@H]1C[C@H]1[C@@H]3CCC4=CC(=O)C=C[C@]4(C)[C@H]3[C@@H](O)C[C@@]12C [Ciclesonide]
Out: 36

In: Give the value of cell viability reported for the following: Cc1cnc(C(=O)NCCc2ccc(S(=O)(=O)NC(=O)NC3CCCCC3)cc2)cn1 [Glipizide]
Out: 87.2

In: Report cell viability for CCOC(=O)C(CCc1ccccc1)NC(C)C(=O)N1CCCC1C(=O)O.O=C(O)C=CC(=O)O (stereo unspecified) [Enalapril Maleate]
Out: 116

In: Entry O=C(c1cc(Cc2n[nH]c(=O)c3ccccc23)ccc1F)N1CCN(C(=O)C2CC2)CC1 needs its cell viability filled in; supply it.
Out: 105

In: Look up and report measured cell viability for this entry: CC(C)Cn1cnc2c(N)nc3ccccc3c21
Out: 115

###

tested on: HCI03 (cells of an ER-positive luminal breast cancer xenograft); assay: cell viability (% of vehicle); higher = less cytotoxic; settings: 10 µM; 72 h
property-label: cell viability
Quick one: just the number, no unit, thanks!

Reference set, count: 6
>  <compound>
c1coc(CNc2ncnc3nc[nH]c23)c1

>  <cell viability>
123

$$$$
>  <compound>
Cc1cccc(C)c1NC(=O)C1CCCCN1C.Cl (configuration not stated) [Mepivacaine HCl]

>  <cell viability>
89.2

$$$$
>  <compound>
COc1cc(Nc2c(C#N)cnc3cc(OCCCN4CCN(C)CC4)c(OC)cc23)c(Cl)cc1Cl [Bosutinib (SKI-606)]

>  <cell viability>
48

$$$$
>  <compound>
Oc1c(Cl)cc(Cl)c2cccnc12

>  <cell viability>
56.7

$$$$
>  <compound>
CC1(C)O[C@@H]2C[C@H]3[C@@H]4CCC5=CC(=O)C=C[C@]5(C)[C@@]4(F)[C@@H](O)C[C@]3(C)[C@]2(C(=O)CO)O1 [Triamcinolone Acetonide]

>  <cell viability>
171

$$$$
>  <compound>
Cn1c(=O)c2c(ncn2CC(O)CO)n(C)c1=O (configuration not stated)

>  <cell viability>
122

$$$$

Could you now look at the following compound, please?
In: Quote cell viability reported for Nc1ccc(O)c(C(=O)O)c1 please.
Out: 125

###

system: UCD52 (cells of a triple-negative basal-like breast cancer xenograft); assay: cell viability (% of vehicle); higher = less cytotoxic; conditions: 10 µM; 72 h
property-label: cell viability

Sample answers from the record:
>  <molecule>
CCN(CCO)CCCC(C)Nc1ccnc2cc(Cl)ccc12.O=S(=O)(O)O (stereo not given) [Hydroxychloroquine Sulfate]

>  <cell viability>
71.4

$$$$
>  <molecule>
CN(Cc1cc(Br)cc(Br)c1N)C1CCCCC1.Cl [Bromhexine HCl]

>  <cell viability>
73.8

$$$$
>  <molecule>
CN1CCCC[C@H]1CCN1c2ccccc2Sc2ccc(S(C)=O)cc21.O=S(=O)(O)c1ccccc1 (stereo not given in full) [Mesoridazine Besylate]

>  <cell viability>
95.9

$$$$
>  <molecule>
CCNC1(C(N)=O)CCN(c2ncnc3c2nc(-c2ccccc2Cl)n3-c2ccc(Cl)cc2)CC1.Cl

>  <cell viability>
63.4

$$$$
>  <molecule>
COC(=O)C1=C(C)NC(C)=C(C(=O)OCCN(C)Cc2ccccc2)C1c1cccc([N+](=O)[O-])c1.Cl (stereo not given) [Nicardipine HCl]

>  <cell viability>
55.4

$$$$

In: Could you please provide reported cell viability for O=C1C=CC=CC1=C1NC(=C2C=CC=CC2=O)N(c2ccc(C(=O)O)cc2)N1 ? Thanks!
Out: 77.7

In: Determine from records and report cell viability for CCCN1CCCCC1C(=O)Nc1c(C)cccc1C.Cl.O (stereo not given) [Ropivacaine hydrochloride monohydrate]
Out: 96.2

In: Quickly give me recorded cell viability for Nc1[nH]c(=O)ncc1F
Out: 81.4

###

tested on: WHIM2; test: cell viability (% of vehicle); higher = less cytotoxic; conditions: 10 µM; 72 h
Mark Satisfied only when cell viability stays strictly below 90. Values equal to the cut-off are Not satisfied.

Record excerpt, results attached:
>  <compound>
COc1cc2nccc(Oc3ccc(NC(=O)NC4CC4)c(Cl)c3)c2cc1C(N)=O [Lenvatinib (E7080)]

>  <label>
Satisfied

$$$$
>  <compound>
CC(C)CN(CC(O)C(Cc1ccccc1)NC(=O)OC1CCOC1)S(=O)(=O)c1ccc(N)cc1 (stereo not drawn)

>  <label>
Satisfied

$$$$
>  <compound>
CN1CCN(C2=c3ccccc3=Nc3ccc(Cl)cc3N2)CC1

>  <label>
Satisfied

$$$$
>  <compound>
CNC(=O)C(Cc1c[nH]c2ccccc12)NC(=O)C(CC(=O)NO)CC(C)C (stereo not drawn)

>  <label>
Not satisfied

$$$$

In: Item O=C(C=Cc1cccc(S(=O)(=O)Nc2ccccc2)c1)NO : cell viability beneath 90, strictly?
Out: Satisfied

In: Is it true that cell viability reported for CC(=O)[N-]S(=O)(=O)c1ccc(N)cc1.[Na+] [Sulfacetamide Sodium] is less than 90?
Out: Satisfied

In: Below 90 on cell viability? Entry CC(c1cc2ccccc2s1)N(O)C(N)=O (stereo not drawn)
Out: Not satisfied
